# target under test: ACVR2B, Q13705
# Sequence (Q13705 whole entry, looked up): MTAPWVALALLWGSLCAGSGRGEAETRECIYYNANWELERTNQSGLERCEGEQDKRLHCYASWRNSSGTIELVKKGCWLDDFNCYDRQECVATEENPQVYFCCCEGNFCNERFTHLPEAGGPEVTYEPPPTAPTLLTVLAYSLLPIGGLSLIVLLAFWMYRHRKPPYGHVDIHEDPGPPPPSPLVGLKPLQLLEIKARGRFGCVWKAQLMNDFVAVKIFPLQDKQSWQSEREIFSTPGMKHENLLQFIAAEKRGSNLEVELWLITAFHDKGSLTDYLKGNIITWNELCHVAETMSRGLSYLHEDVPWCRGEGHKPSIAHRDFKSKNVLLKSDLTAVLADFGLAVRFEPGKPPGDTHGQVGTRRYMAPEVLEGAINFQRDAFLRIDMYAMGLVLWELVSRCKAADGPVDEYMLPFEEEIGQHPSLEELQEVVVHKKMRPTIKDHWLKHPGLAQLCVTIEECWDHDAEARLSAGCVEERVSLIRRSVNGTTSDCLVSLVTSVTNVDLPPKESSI
# test name: Kd (SPR)
Kd values for the binders below.
Numeric answer only, unit nM assumed.

Worked cases, Kd given:
binder	result units	reported result
unnamed (protein) chain 1: QVQLVQSGAEVKKPGASVKVSCKASGYTFTSSYINWVRQAPGQGLEWMGTINPVSGSTSYAQKFQGRVTMTRDTSISTAYMELSRLRSDDTAVYYCARQLTLDVWGQGTLVTVSS chain 2: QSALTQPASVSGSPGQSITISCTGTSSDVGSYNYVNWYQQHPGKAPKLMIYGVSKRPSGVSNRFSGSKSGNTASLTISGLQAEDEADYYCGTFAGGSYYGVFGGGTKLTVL	nM	210
unnamed (protein) chain 1: QVQLVQSGAEVKKPGASVKVSCKASGYRFTSSGINWVRQAPGQGLEWMGTINPVTGNTSYAQKFQGRVTMTRDTSISTAYMELSRLRSDDTAVYYCARGGYFDYWGQGTLVTVSS chain 2: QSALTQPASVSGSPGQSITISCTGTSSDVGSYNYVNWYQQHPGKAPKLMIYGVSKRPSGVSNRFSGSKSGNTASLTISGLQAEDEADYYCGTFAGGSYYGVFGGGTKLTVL	nM	292

Now let's try a different one.
// query Which Kd is listed for unnamed (protein) chain 1: QVQLVQSGAEVKKPGASVKVSCKASGYTFTSSYINWVRQAPGQGLEWMGTINPVSGSTSYAQKFQGRVTMTRDTSISTAYMELSRLRSDDTAVYYCARGGYDDYWGQGTLVTVSS chain 2: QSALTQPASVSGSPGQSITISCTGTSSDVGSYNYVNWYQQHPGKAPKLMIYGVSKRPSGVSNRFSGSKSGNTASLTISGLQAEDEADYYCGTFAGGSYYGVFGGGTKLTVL ?
// result 42.6
